Form field: FIG. 30 FACS value (IC17=0, DQN0139bb=100) (one value per entry).
Biological target: T1, HLA-DQ2.5/alpha 2 gliadin peptide complex on Ba/F3 cells (human; wheat)
T1 construct: also called Ba/F3-HLA-DQ2.5/alpha 2 gliadin peptide
Assay: FACS
Write the number on its own, no unit after it.

// solved cases for FIG. 30 FACS value (IC17=0, DQN0139bb=100) follow
DQN0225dd (antibody, human IgG1, kappa, V domains shown, also called DQN0225Hd; DQN0225Ld) VH: QSLEESGGGLVKPGGTLTLTCTASGFSFSSAYYMCWVRQAPGKGLEWIACIYVGSGSTYYASWAQGRCTISKASSTTVTLQMTSLTAADTATYFCARDPLIYYYYGELNLWGPGTLVTVSS VL: AVVLTQTASPVSAPVGGTVTIKCQASEDISSNLAWYQQKPGQRPKVLIYSASTLASGVSSQFKGSGSGTQFTLTISDLECADAATYYCQSYYDISSVTFGGGTKVEIKR :: 85.1
DQN0271hh (antibody, human IgG1, kappa, V domains shown, also called DQN0271Lh) VH: QSLEESGGGLVKPGASLTLTCKASGFSFSSGYYMCWVRQAPGKGLEWIACIYAGSPDLTYYATWAKGRLTISTTSSTTVTLQLTSLTAADTATYFCARDPGNWGGYDDVRLWGPGTLVTVSS VL: AQVLTQTPSPVSAAVGGTVTISCQSSQSIYSNYLSWFQQKTGQPPKLLIYRASTLASGVPSRFKGSGSGTEFTLTISGVECDDAATYYCQGYYSGAIWTFGGGTKVEIKR :: 83
DQN0334bb (antibody, human IgG1, kappa, V domains shown, also called DQN0334Hb; DQN0334Lb) VH: QQQLEESGGDLVQPEGSLTLTCKASGFDFSFNAMCWVRQAPGRGPEWIACIYNGNGSTYYASWAKGRFTISKTSSTSVTLQMTSLTAADTATYFCARGGYGLGYAGYGDVNYFNLWGPGTLVTVSS VL: AVVLTQTASPVSAPVGGTVTIKCQASEDIYFLLAWYRQKPGQPPKLLIYGASTLASGVPSRFKGSGSGTEYTLTISDLECADAATYYCQSYWYGDSGPNTFGGGTKVEIKR :: 45.3
DQN0303hh (antibody, human IgG1, kappa, V domains shown, also called DQN0303Lh) VH: QQHLEESGGGLVKPGGTLTLTCTASGIDFSSYYYMCWVRQAPGKGLEWIACIYTGDGSTYYASWVNGRFTISRSTSLNTVTLQLNGLAAADTATYFCARSYGASSAIGYFNLWGPGTLVTVSS VL: DVVMTQTPSSKSAAVGGTVTIKCQASQNIYSNLAWYQQKPGQRPKLLIYEASTLASGVPSRFRGSGSGTEFTLTISDLECDDAATYYCQNYYYTSSNDFYTFGGGTKVEIKR :: 62.6

Now examine the next entry.
Query (binder): DQN0333hh (antibody, human IgG1, kappa, V domains shown, also called DQN0333Lh) VH: QSVEESGGRLVMPGGSLTLTCTASGFSLSSYYMNWVRQAPGKGLEWIGVIYSTDITDYATWATGRFTISKTSTTVDLKMTSLTAADTATYFCARELSPTTSGYIAYLWGPGTLVTVSS VL: AYDMTQTPASVEVAVGGTVTIKCQASQSISSYLAWYQQKPGQPPKLLIYSASTLASGVPSRFKGSGSGTQFTLTVIDVQCDDAATYYCQQTYSGKNVINTFGGGTKVEIKR ; field requested: FIG. 30 FACS value (IC17=0, DQN0139bb=100)
118
